# Test system: SF-268
# METHOD: Cytotoxicity against human SF268 cells at 10^-5 M after 72 hrs by MTS assay
# Type: functional
# CONDITION INFO: SF-268, 72 h, read-out: GI
Here, each record is paired with measured inhibition of growth at 10 µM data.
METRIC NAME: inhibition of growth at 10 µM (%)

>  <GIVEN SMILES>
COc1ccc(/C(=C2\O[C@@H]([C@H](O)CO)[C@H]3OC(C)(C)O[C@@H]23)c2cc(OC)c(OC)c(OC)c2)cc1O

>  <METRIC NAME>
inhibition of growth at 10 µM

>  <READOUT VALUE>
73

$$$$
>  <GIVEN SMILES>
COc1cc(C(=C(CO)CO)c2cc(OC)c(OC)c(OC)c2)cc(OC)c1OC

>  <METRIC NAME>
inhibition of growth at 10 µM

>  <READOUT VALUE>
35

$$$$
>  <GIVEN SMILES>
COc1cc(C(=C(COC(C)=O)COC(C)=O)c2ccc3ccccc3c2)cc(OC)c1OC

>  <METRIC NAME>
inhibition of growth at 10 µM

>  <READOUT VALUE>
81

$$$$
>  <GIVEN SMILES>
COc1ccc(/C(=C2/O[C@@H]([C@H]3COC(C)(C)O3)[C@H]3OC(C)(C)O[C@@H]23)c2cc(OC)c(OC)c(OC)c2)cc1O

>  <METRIC NAME>
inhibition of growth at 10 µM

>  <READOUT VALUE>
68

$$$$
>  <GIVEN SMILES>
COc1cc(/C(=C2\O[C@@H]([C@H]3COC(C)(C)O3)[C@H]3OC(C)(C)O[C@@H]23)c2cccc([N+](=O)[O-])c2)cc(OC)c1OC

>  <METRIC NAME>
inhibition of growth at 10 µM

>  <READOUT VALUE>
20

$$$$
>  <GIVEN SMILES>
COc1cc(C(=C(COC(C)=O)COC(C)=O)c2cc(OC)c(OC)c(OC)c2)cc(OC)c1OC

>  <METRIC NAME>
inhibition of growth at 10 µM

>  <READOUT VALUE>
53

$$$$
>  <GIVEN SMILES>
COc1cc(C(=C(COC(C)=O)COC(C)=O)c2ccc3c(c2)OCO3)cc(OC)c1OC

>  <METRIC NAME>
inhibition of growth at 10 µM

>  <READOUT VALUE>
20

$$$$
>  <GIVEN SMILES>
COc1ccc(C(=C(COC(C)=O)COC(C)=O)c2cc(OC)c(OC)c(OC)c2)cc1O

>  <METRIC NAME>
inhibition of growth at 10 µM

>  <READOUT VALUE>
71

$$$$
>  <GIVEN SMILES>
COc1cc(C(=C(CO)CO)c2ccc3ccccc3c2)cc(OC)c1OC

>  <METRIC NAME>
inhibition of growth at 10 µM

>  <READOUT VALUE>
85

$$$$
>  <GIVEN SMILES>
COc1cc(/C(=C2/O[C@@H]([C@H](O)CO)[C@H]3OC(C)(C)O[C@@H]23)c2cccc([N+](=O)[O-])c2)cc(OC)c1OC

>  <METRIC NAME>
inhibition of growth at 10 µM

>  <READOUT VALUE>
26

$$$$
